The following binders are shown together with reported koff values.
target or test system: T1, recombinant cynoPD-1 (construct not stated) (cynomolgus monkey, UniProt B0LAJ3 25-170)
T1 construct: not shown: probably His as elsewhere
T1 sequence (B0LAJ3 entry or part of it limits assumed): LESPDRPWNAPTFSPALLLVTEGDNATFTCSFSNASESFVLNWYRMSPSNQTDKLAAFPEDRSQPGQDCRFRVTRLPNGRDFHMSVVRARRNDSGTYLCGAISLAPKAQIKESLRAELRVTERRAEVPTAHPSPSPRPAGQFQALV
assay: SPR, Ab captured, PD-1 analyte
Express your answer in s⁻¹, writing the number without its unit.

Solved entries (count: 3):
[
  {
    "binder": "ZJN296-0 (antibody, human IgG1, V domains shown, human IgG1; also called humanized ZJN296-0; GH + GL) VH: QVQLVQSGAEVKKPGASVKVSCKASGYDFTSHWMHWVRQAPGQGLEWMGAIDPSDSYTNYNQKFKGRVTMTTDTSTSTAYMELRSLRSDDTAVYYCARSPFDYWGQGTTVTVSS VL: DIQMTQSPSSLSASVGDRVTITCKASQDVSTAVAWYQQKPGKAPKLLIYSASYRYTGVPSRFSGSGSGTDFTFTISSLQPEDIATYYCQQHYSFPFTFGQGTKLEIK",
    "unit of measure": "s⁻¹",
    "test value": 0.00641
  },
  {
    "binder": "ZJN296-3 (antibody, V domains shown, human IgG1; also called GH + T073R, GL) VH: QVQLVQSGAEVKKPGASVKVSCKASGYDFTSHWMHWVRQAPGQGLEWMGAIDPSDSYTNYNQKFKGRVTMTTDRSTSTAYMELRSLRSDDTAVYYCARSPFDYWGQGTTVTVSS VL: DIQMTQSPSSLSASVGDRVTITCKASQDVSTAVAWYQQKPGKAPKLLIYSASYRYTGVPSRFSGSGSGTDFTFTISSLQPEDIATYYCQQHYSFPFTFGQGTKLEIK",
    "unit of measure": "s⁻¹",
    "test value": 0.00511
  },
  {
    "binder": "ZJN296-2 (antibody, V domains shown, human IgG1; also called GH + T071V, GL) VH: QVQLVQSGAEVKKPGASVKVSCKASGYDFTSHWMHWVRQAPGQGLEWMGAIDPSDSYTNYNQKFKGRVTMTVDTSTSTAYMELRSLRSDDTAVYYCARSPFDYWGQGTTVTVSS VL: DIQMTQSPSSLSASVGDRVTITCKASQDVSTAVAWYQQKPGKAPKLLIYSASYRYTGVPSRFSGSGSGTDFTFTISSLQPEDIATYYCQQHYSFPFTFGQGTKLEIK",
    "unit of measure": "s⁻¹",
    "test value": 0.00433
  }
]

As a next step, examine the binder that follows.
Output koff of ZJN296-6 (antibody, V domains shown, human IgG1; also called GH + T071V + T073R, GL) VH: QVQLVQSGAEVKKPGASVKVSCKASGYDFTSHWMHWVRQAPGQGLEWMGAIDPSDSYTNYNQKFKGRVTMTVDRSTSTAYMELRSLRSDDTAVYYCARSPFDYWGQGTTVTVSS VL: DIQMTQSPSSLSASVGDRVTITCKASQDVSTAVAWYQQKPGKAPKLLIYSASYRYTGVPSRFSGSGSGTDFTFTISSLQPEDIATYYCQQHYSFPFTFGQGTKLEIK
0.00279
